Recorded IC50 for the following molecules
test system: Influenza A virus H3N2; assay: microbe, parasite or virus in culture; details: Hanfang/359/95
Form entry: value (µM) — number only.

Study these solved cases before continuing.
>>> numeric_value("C=C[C@H]1[C@H](O[C@@H]2O[C@H](CO)[C@@H](O)[C@H](O)[C@H]2O)OC=C(C(=O)O)[C@H]1/C=C/c1cc(C(=O)O)c[n+]([C@H](Cc2ccccc2)C(=O)[O-])c1")
8.2
>>> numeric_value("O=C(/C=C/c1ccc(O)c(O)c1)O[C@@H]1[C@H](O)C[C@@](O)(C(=O)O)C[C@H]1OC(=O)/C=C/c1ccc(O)c(O)c1")
10.2
>>> numeric_value("COC[C@H]1O[C@@H](n2cnc3c(N)ncnc32)[C@H](O)[C@@H]1O")
3.4

// fetch IC50 given entry C=C[C@H]1[C@H](O[C@@H]2O[C@H](CO)[C@@H](O)[C@H](O)[C@H]2O)OC=C(C(=O)O)[C@H]1/C=C/c1ccc[n+]([C@H](Cc2ccccc2)C(=O)[O-])c1
6.8

// fetch IC50 given entry O=C(/C=C/c1ccc(O)c(O)c1)O[C@@H]1C[C@](O)(C(=O)O)C[C@@H](OC(=O)/C=C/c2ccc(O)c(O)c2)[C@H]1O
4.9

###

assay: Antiinflammatory activity in rat polymorphonuclear leukocytes assessed as inhibition of PAF-induced release of glucuronidase at 10 uM; type: functional
Recorded inhibition at 10 µM for the following molecules

Study these solved cases before continuing.
>>> result("O=C(O)c1cc(O[C@@H]2O[C@H](CO)[C@@H](O)[C@H](O)[C@H]2O)ccc1O")
"< 30%"
>>> result("C=C[C@H]1[C@H](O[C@@H]2O[C@H](CO)[C@@H](O)[C@H](O)[C@H]2O)OC=C(C(=O)OC)[C@H]1/C=C/c1ccc[n+]([C@@H](C)C(=O)[O-])c1")
"72.3%"

Moving on to another molecule below.
// fetch inhibition at 10 µM given entry C[C@@H]1C(=O)O[C@H]2[C@H](O)[C@@]34[C@H]5C[C@@H](C(C)(C)C)[C@]36[C@@H](OC(=O)[C@@H]6O)O[C@@]4(C(=O)O5)[C@@]12O [GINKOLIDE B]
78%

###

Recorded inhibition at 10 µM for the following compounds
assay: Antiinflammatory activity in rat polymorphonuclear leukocytes assessed as inhibition of PAF-induced release of glucuronidase at 10 uM; format: functional

Study these solved cases before continuing.
>>> result("O=C(O)/C=C/c1ccc(O[C@@H]2O[C@H](CO)[C@@H](O)[C@H](O)[C@H]2O)c(O)c1")
"< 30%"
>>> result("C=C[C@H]1[C@H](O[C@@H]2O[C@H](CO)[C@@H](O)[C@H](O)[C@H]2O)OC=C(C(=O)OC)[C@H]1/C=C/c1cc(C(=O)O)c[n+]([C@H](C(=O)[O-])C(C)C)c1")
"< 30%"

// fetch inhibition at 10 µM given entry C=C[C@H]1[C@H](O[C@@H]2O[C@H](CO)[C@@H](O)[C@H](O)[C@H]2O)OC=C(C(=O)O)[C@H]1/C=C/c1ccc[n+]([C@@H](C)C(=O)[O-])c1
63.2%

// fetch inhibition at 10 µM given entry C=C[C@H]1[C@H](O[C@@H]2O[C@H](CO)[C@@H](O)[C@H](O)[C@H]2O)OC=C(C(=O)[O-])[C@H]1/C=C/c1cc(C(=O)O)c[n+]([C@H](C(=O)O)[C@@H](C)CC)c1
< 30%

// fetch inhibition at 10 µM given entry C=C[C@H]1[C@H](O[C@@H]2O[C@H](CO)[C@@H](O)[C@H](O)[C@H]2O)OC=C(C(=O)[O-])[C@H]1/C=C/c1cc(C(=O)O)c[n+]([C@@H](CC(C)C)C(=O)O)c1
< 30%

// fetch inhibition at 10 µM given entry C=C[C@H]1[C@H](O[C@@H]2O[C@H](CO)[C@@H](O)[C@H](O)[C@H]2O)OC=C(C(=O)OC)[C@H]1/C=C/CC(=O)OC
< 30%

// fetch inhibition at 10 µM given entry O=C(O)/C=C/c1ccc(O)c(O)c1
40.3%

// fetch inhibition at 10 µM given entry COc1cc(/C=C/CO)cc(OC)c1O[C@@H]1O[C@H](CO)[C@@H](O)[C@H](O)[C@H]1O
< 30%

// fetch inhibition at 10 µM given entry C=C[C@H]1[C@H](O[C@@H]2O[C@H](CO)[C@@H](O)[C@H](O)[C@H]2O)OC=C(C(=O)OC)[C@H]1CC(=O)OC
< 30%

// fetch inhibition at 10 µM given entry COC(=O)C1=CO[C@@H]2C[C@H]1C[C@@H]1C(C(=O)OC)=CO[C@@H](O[C@@H]3O[C@H](CO)[C@@H](O)[C@H](O)[C@H]3O)[C@@H]12
< 30%

// fetch inhibition at 10 µM given entry C=C[C@H]1[C@H](O[C@@H]2O[C@H](CO)[C@@H](O)[C@H](O)[C@H]2O)OC=C(C(=O)[O-])[C@H]1/C=C\c1ccc[n+]([C@H](Cc2ccccc2)C(=O)O)c1
< 30%

// fetch inhibition at 10 µM given entry C=C[C@H]1[C@H](O[C@@H]2O[C@H](CO)[C@@H](O)[C@H](O)[C@H]2O)OC=C(C(=O)O)[C@H]1/C=C/c1ccc[n+]([C@H](Cc2ccccc2)C(=O)[O-])c1
53.8%

// fetch inhibition at 10 µM given entry O=C(O)c1ccc(O)c(O)c1
< 30%

###

system: HCT-8; assay: Cytotoxicity against human HCT8 cells at 10 uM after 96 hrs by MTT assay; type: functional, cell-based
Calls of active or inactive are those of the source. No cut-off for these calls is given here.
Assay readout: Activity

>>> result("C=C[C@H]1[C@H](O[C@@H]2O[C@H](CO)[C@@H](O)[C@H](O)[C@H]2O)OC=C(C(=O)OC)[C@H]1CC(=O)OC")
"inactive"
>>> result("C=C[C@H]1[C@H](O[C@@H]2O[C@H](CO)[C@@H](O)[C@H](O)[C@H]2O)OC=C(C(=O)O)[C@H]1/C=C/c1ccc[n+]([C@H](Cc2ccccc2)C(=O)[O-])c1")
"inactive"
>>> result("O=C(OCc1ccccc1)c1c(O)cccc1O[C@@H]1O[C@H](CO)[C@@H](O)[C@H](O)[C@H]1O")
"inactive"

###

Recorded IC50 for the following molecules
test system: Influenza A virus H3N2; experiment: microbe, parasite or virus in culture; settings: Hanfang/359/95
Form entry: value (µM) — number only.

>>> numeric_value("CCOC(=O)C1=C[C@@H](OC(CC)CC)[C@H](NC(C)=O)[C@@H](N)C1")
1.3
>>> numeric_value("C=C[C@H]1[C@H](O[C@@H]2O[C@H](CO)[C@@H](O)[C@H](O)[C@H]2O)OC=C(C(=O)O)[C@H]1/C=C/c1ccc[n+]([C@@H](C)C(=O)[O-])c1")
11.6

Moving on to another molecule below.
// fetch IC50 given entry C=C[C@H]1[C@H](O[C@@H]2O[C@H](CO)[C@@H](O)[C@H](O)[C@H]2O)OC=C(C(=O)[O-])[C@H]1/C=C/c1cc(C(=O)O)c[n+]([C@@H](CC(C)C)C(=O)O)c1
10.3
